Several publications report IC50 on Matrix metalloproteinase-9 (Homo sapiens, UniProt P14780); those values are gathered here.
Field format: number, assumed µM, no unit text.

Incoming: // query IC50 value for entry CCCCCCOc1ccc(C(=O)[C@@H]2CC[C@H](Cn3nnc4ccc(C(F)(F)F)cc4c3=O)[C@H]2C(=O)O)cc1 (single isomer, unassigned)
Outgoing: 0.083

Incoming: // query: O=C(CC(CCn1nnc2ccccc2c1=O)C(=O)O)c1cc2ccc(OCCc3ccccc3)cc2o1 (racemic)
Outgoing: 2.2

Incoming: Now the compound O=C(O)[C@@H]1[C@@H](Cn2nnc3ccc(C(F)(F)F)cc3c2=O)CC[C@H]1C(=O)c1ccc(SCc2cccc(Cl)c2)cc1 (single isomer, unassigned)
Outgoing: 0.55

Incoming: Same for O=S(=O)(c1ccc(Oc2ccccc2)cc1)N(Cc1ccccc1)c1cccn(O)c1=S
Outgoing: 0.693

Incoming: Request: CC#CCOc1ccc(S(=O)(=O)C2(C(=O)NO)CCN(Cc3ccc(OCCN4CCCCC4)cc3)CC2)cc1
Outgoing: 0.0251

Incoming: And then COc1ccc(S(=O)(=O)N(CCc2cccc(Cl)c2)CC(=O)N2C(CC(=O)NO)CN(Cc3cc(OC)cc(OC)c3)C(=O)[C@@H]2C)cc1 (some centres unmarked) , what is it?
Outgoing: 0.12

Incoming: // repeat for C[C@H](C(=O)NO)N(CCN1CCOCC1)S(=O)(=O)c1ccc(NC(=O)C2CCCCC2)cc1 and report
Outgoing: 3.5

* * *

Literature-derived IC50 for Matrix metalloproteinase-9 (Homo sapiens, UniProt P14780) follows.

Incoming: If you can, please state the reported IC50 value of O=C(C#Cc1ccccc1)Nc1ccc(-c2ccc(S(=O)(=O)N[C@H](Cc3ccccc3)C(=O)O)cc2)cc1 .
Outgoing: > 10 µM

Incoming: Here is the next molecule: COc1ccc(C[C@H](NS(=O)(=O)c2ccc(-c3ccc(C#Cc4ccc5cc(OC)ccc5c4)cc3)cc2)C(=O)O)cc1
Outgoing: > 10 µM

Incoming: Moving on to O=C1[C@H](NS(=O)(=O)c2ccc(N3CCN(c4ccccc4)CC3)cc2)CC=CCN1O
Outgoing: > 1 µM

Incoming: Please give the result for O=c1c(NS(=O)(=O)c2ccc(Oc3ccc(Cl)cc3)cc2)cccn1O too.
Outgoing: 0.316 µM

Incoming: CC(C)[C@@H](NS(=O)(=O)N1CCN(c2ccc(C#Cc3ccnc(C(=O)NCc4cccc(C#N)c4)c3)cc2)CC1)C(=O)O ?
Outgoing: > 10 µM

Incoming: Follow-up item: O=C1[C@H](NS(=O)(=O)c2ccc(Oc3ncc(C(F)(F)F)cc3Cl)cc2)CC=CCN1O
Outgoing: > 1 µM

Incoming: Note, next up: C[C@@H](NS(=O)(=O)N1CCN(c2ccc(C#Cc3ccnc(C(=O)NCc4ccc5c(c4)oc(=O)n5C)c3)cc2)CC1)C(=O)O
Outgoing: > 10 µM

* * *

Collected pIC50 for Matrix metalloproteinase-9 (Homo sapiens, UniProt P14780) across several studies; compounds listed below.
API: returns pIC50 as number; meaning -log10 of concentration in mol/L.

Incoming: Item under review: CC[N+]1=C(/C=C/C=C/C=C2/N(CCCCCC(=O)N3CCN(CCOCCON([C@H](CCNC(=O)OCc4ccccc4)C(=O)NO)S(=O)(=O)c4ccc(-c5ccc(OC)cc5)cc4)CC3)c3ccc4c(S(=O)(=O)O)cc(S(=O)(=O)O)cc4c3C2(C)C)C(C)(C)c2c1ccc1c(S(=O)(=O)[O-])cc(S(=O)(=O)O)cc21 . Reported pIC50?
Outgoing: 8.48

Incoming: Another: CN(c1cccn(O)c1=O)S(=O)(=O)c1ccc(-c2ccc(Cl)cc2)cc1
Outgoing: 5.74

Incoming: And then Cc1ccc2nnn(C[C@@H]3CC[C@H](C(=O)c4ccc(OCCC5CCOCC5)cc4)[C@H]3C(=O)O)c(=O)c2c1 (racemic) , what is it?
Outgoing: 6.02

Incoming: And for CN1CCN(CCN([C@@H]2CC=CCN(O)C2=O)S(=O)(=O)c2ccc(Oc3ccc(Cl)cc3)cc2)CC1 ?
Outgoing: 9.70

Incoming: Would you kindly repeat that for Cc1cc(C)c(N(Cc2ccccc2)S(=O)(=O)c2ccc(OCCc3ccccc3)cc2)c(C(=O)NO)c1 ?
Outgoing: 7.34

Incoming: Also C#CCOc1ccc(S(=O)(=O)C2(C(=O)NO)CCN(Cc3ccc(Br)cc3)CC2)cc1 , if possible.
Outgoing: 8.24

Incoming: Try this compound next: O=C(O)CN(CC(=O)NO)S(=O)(=O)c1ccc(Oc2ccc(I)cc2)cc1
Outgoing: 8.79

Incoming: Next compound: CCOC(=O)c1csc(CN(Cc2ccc(F)cc2)Cc2ccc(OCc3ccncc3)cc2)n1
Outgoing: 3.64

Incoming: // query: CC#CCOc1ccc(S(=O)(=O)C2(C(=O)NO)CCN(C(=O)c3cccnc3)CC2)cc1
Outgoing: 6.19

Incoming: Okay, and O=C(O)[C@H]1[C@H](Cn2nnc3ccccc3c2=O)CC[C@@H]1C(=O)c1ccc(OCc2ccccc2)cc1 (racemic) ?
Outgoing: 7.52

Incoming: Can you check O=C(CC(CCn1nnc2ccccc2c1=O)C(=O)O)c1cc2cc(OCc3cccc(Cl)c3)ccc2o1 (racemic) next?
Outgoing: 4.59

* * *

What follows is literature data on pIC50 for Matrix metalloproteinase-9 (Homo sapiens).
Bear in mind: pIC50 is minus log10 of a mol/L concentration; give just that figure.

Incoming: Param item = CC#CCOc1ccc(S(=O)(=O)C2(C(=O)NO)CCN(Cc3ccc(C)cc3)CC2)cc1 ; retrieve measured pIC50.
Outgoing: 7.02

Incoming: Field entry: O=C(O)c1csc(CN(Cc2ccc(OCc3ccccc3)cc2)Cc2cccc(F)c2)n1
Outgoing: 5.01

Incoming: Do the same for COc1ccc(-c2ccccc2S(=O)(=O)N2CC[C@@H](NC(=O)CCC(C)C)C[C@@H]2C(=O)NO)cc1 please
Outgoing: 5.74

Incoming: Request: CCCCCc1ccc(C(=O)Nc2ccc(S(=O)(=O)N(CCN3CCOCC3)[C@@H](C(=O)NO)C(C)C)cc2)cc1
Outgoing: 6.70

Incoming: Try this compound next: COc1ccc(S(=O)(=O)N2CC(=O)NCC2C(=O)NO)cc1 (centres unmarked)
Outgoing: 7.91

Incoming: Queued: O=C(O)[C@@H]1[C@@H](Cn2nnc3ccc(C(F)(F)F)cc3c2=O)CC[C@H]1C(=O)c1ccc(OCc2cccc(Cl)c2)cc1 (single isomer, unassigned)
Outgoing: 6.57

Incoming: What do we get for Cc1ccc(Oc2ccc(N(C(C)c3cccn(O)c3=O)S(C)(=O)=O)cc2)cc1 (centres unmarked) ?
Outgoing: 6.65

Incoming: Field entry: COc1ccc(S(=O)(=O)N2CC[C@@H](NC(C)=O)C[C@@H]2C(=O)NO)cc1
Outgoing: 8.07

Incoming: Another compound to check: COc1ccc(/C=C2\Sc3ccccc3N(CC(=O)NO)C2=O)cc1
Outgoing: 6.96

Incoming: Then this compound: O=C(CC(CCn1nnc2ccccc2c1=O)C(=O)O)c1cc2cc(OCC3CCOCC3)ccc2o1 (racemic)
Outgoing: 5.04

Incoming: Moving on to CCCCCOc1ccc2c(C(=O)CC(CCn3nnc4ccccc4c3=O)C(=O)O)coc2c1 (single isomer, unassigned)
Outgoing: 7.39

Incoming: Also CC#CCOc1ccc(S(=O)(=O)CC2(C(=O)NO)CCN(C(=O)OC(C)(C)C)CC2)cc1 ?
Outgoing: 5.86

Incoming: Also need CCCCCCCOc1ccc2oc(C(=O)CC(CCn3nnc4ccccc4c3=O)C(=O)O)cc2c1 (racemic) , thanks.
Outgoing: 5.01

Incoming: Moving on to CC(O)(CS(=O)(=O)c1ccc(NC(=O)c2ccccc2)cc1)C(=O)NO (centres unmarked)
Outgoing: 5.94

Incoming: Repeat for the following compound: CC(C)CCC(=O)N[C@@H]1CCN(S(=O)(=O)c2ccc(-c3ccc([N+](=O)[O-])cc3)cc2)[C@@H](C(=O)NO)C1
Outgoing: 7.44

Incoming: Now consider COc1ccc(Oc2ccc(S(=O)(=O)C3CCCCN(O)C3=O)cc2)cc1 (centres unmarked) .
Outgoing: 7.51

Incoming: Next record, please: O=C(O)[C@@H]1[C@@H](Cn2nnc3ccc(C(F)(F)F)cc3c2=O)CC[C@H]1C(=O)c1ccc(SCc2ccccc2)cc1 (single isomer, unassigned)
Outgoing: 6.33

* * *

// cross-source set; read-out = pIC50; system = UniProt P14780
Remember the convention: pIC50 equals -log10 of concentration in molar.

Incoming: Data request, read-out pIC50, for COC(=O)Nc1cccc(COc2ccc(C(=O)[C@@H]3CC[C@H](Cn4nnc5ccc(C(F)(F)F)cc5c4=O)[C@H]3C(=O)O)cc2)c1 (stereo in doubt)
Outgoing: 5.68

Incoming: Entry to check: O=C(CC(CCn1nnc2ccccc2c1=O)C(=O)O)c1cc2cc(OCc3ccc(F)cc3)ccc2o1 (single isomer, unassigned; (+))
Outgoing: 4.89

Incoming: Repeat with CC#CCOc1ccc(S(=O)(=O)CC2(C(=O)NO)CCN(C(=O)OCc3ccccc3)CC2)cc1
Outgoing: 6.37
